Reported Classification values are given for each entry in this list.
measurement.target: PDZ protein (GST-PDZ fusion) (Homo sapiens, UniProt Q12923)
Construct: made in house; host or cells: E. coli (DH5alpha, BL21 or JM109)
Sequence (Q12923 whole entry, the tested form may be a part): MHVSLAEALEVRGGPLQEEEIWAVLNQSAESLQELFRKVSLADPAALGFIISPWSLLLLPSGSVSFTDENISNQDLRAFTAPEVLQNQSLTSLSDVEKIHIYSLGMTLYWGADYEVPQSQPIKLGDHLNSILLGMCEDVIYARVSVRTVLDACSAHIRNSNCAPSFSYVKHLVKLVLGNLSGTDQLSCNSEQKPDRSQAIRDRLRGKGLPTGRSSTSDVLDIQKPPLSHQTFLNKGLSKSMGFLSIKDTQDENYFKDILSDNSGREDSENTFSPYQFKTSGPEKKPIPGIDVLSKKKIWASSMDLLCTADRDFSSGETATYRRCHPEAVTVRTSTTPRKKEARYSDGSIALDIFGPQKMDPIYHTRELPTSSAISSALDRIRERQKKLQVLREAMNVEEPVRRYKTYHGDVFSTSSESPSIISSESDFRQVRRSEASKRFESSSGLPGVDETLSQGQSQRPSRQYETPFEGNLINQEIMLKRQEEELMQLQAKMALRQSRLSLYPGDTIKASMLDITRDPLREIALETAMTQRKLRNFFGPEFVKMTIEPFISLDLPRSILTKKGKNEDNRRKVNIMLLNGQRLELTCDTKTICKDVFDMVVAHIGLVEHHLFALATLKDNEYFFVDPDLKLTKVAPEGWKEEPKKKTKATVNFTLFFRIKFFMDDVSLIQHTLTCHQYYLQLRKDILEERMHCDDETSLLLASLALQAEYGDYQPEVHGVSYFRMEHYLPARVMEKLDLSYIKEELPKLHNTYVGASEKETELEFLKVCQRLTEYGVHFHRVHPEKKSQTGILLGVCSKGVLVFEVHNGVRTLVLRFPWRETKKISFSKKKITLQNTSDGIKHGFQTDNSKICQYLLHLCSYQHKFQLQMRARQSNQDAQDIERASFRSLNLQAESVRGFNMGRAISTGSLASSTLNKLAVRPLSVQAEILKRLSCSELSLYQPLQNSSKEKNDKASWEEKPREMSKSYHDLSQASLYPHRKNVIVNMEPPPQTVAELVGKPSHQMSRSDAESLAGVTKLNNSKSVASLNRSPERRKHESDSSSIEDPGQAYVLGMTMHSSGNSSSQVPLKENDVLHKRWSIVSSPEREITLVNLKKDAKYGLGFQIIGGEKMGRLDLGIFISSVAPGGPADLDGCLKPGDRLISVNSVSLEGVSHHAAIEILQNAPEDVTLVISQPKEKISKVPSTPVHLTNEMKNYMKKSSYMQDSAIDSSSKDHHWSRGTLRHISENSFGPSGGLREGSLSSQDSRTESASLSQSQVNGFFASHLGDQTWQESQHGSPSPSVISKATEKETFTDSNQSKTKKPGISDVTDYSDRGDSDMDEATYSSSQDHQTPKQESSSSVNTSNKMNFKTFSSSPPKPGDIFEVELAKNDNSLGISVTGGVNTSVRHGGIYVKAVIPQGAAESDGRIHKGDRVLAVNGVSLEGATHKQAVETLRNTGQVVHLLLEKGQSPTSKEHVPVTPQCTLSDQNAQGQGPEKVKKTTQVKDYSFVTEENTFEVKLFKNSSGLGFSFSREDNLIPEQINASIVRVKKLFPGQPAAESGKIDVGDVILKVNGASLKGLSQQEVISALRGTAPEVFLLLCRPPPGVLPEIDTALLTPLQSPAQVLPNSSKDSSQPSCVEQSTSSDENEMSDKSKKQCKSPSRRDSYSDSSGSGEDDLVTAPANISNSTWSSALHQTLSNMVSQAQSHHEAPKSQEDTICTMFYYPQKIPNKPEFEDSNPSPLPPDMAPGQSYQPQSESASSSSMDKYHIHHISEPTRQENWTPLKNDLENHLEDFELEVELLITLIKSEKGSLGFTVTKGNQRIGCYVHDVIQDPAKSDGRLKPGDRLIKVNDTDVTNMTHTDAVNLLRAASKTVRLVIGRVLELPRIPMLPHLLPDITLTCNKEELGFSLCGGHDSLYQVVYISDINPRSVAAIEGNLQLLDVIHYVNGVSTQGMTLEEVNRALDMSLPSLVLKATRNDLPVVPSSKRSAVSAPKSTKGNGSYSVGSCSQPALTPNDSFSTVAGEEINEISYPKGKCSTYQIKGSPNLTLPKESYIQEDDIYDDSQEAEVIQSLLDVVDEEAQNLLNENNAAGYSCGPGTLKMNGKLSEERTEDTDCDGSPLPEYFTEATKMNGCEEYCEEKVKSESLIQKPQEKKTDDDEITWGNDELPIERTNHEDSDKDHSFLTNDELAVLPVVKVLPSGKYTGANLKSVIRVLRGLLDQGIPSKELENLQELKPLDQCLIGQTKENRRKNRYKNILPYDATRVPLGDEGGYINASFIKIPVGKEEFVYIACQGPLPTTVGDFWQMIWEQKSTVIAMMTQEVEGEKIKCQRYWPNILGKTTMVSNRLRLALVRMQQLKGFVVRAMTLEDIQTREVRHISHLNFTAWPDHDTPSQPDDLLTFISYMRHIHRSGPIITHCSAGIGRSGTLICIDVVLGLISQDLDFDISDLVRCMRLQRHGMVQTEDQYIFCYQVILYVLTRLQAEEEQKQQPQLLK
assay.procedure: G' assay (10 uM PL peptide), results of TABLE 7 and TABLE 12
Format: binding
condition.context: PDZ PTPL-1, PDZ Domain 4
Ends that are not written are not given here. * marks the point of attachment. Biotin = O=C1N[C@H]2[C@H](CS[C@H]2CCCCC(=O)*)N1

Entry YSQPSARSEGEFKQTSSFLV (Biotin-YSQPSARSEGEFKQTSSFLV) [JAM (junctional adhesion molecule)] , Classification reported as 1 (A450 nm 0-1)

Further cases:
For record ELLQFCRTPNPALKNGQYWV (Biotin-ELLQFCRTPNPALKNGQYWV) the listed Classification is 5 (A450 nm of 4 more than 2× repeated)

Measured Classification, PVYIVQEMPPQSPANIYYKV (Biotin-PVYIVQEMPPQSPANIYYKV) [ephrin B1] : 2 (A450 nm 1-2)

According to the records, this sequence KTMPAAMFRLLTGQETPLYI (Biotin-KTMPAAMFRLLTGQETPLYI) [MINT-2] displays Classification of 4 (A450 nm 3-4)

Entry PRLKRMQQFEDLEDEIPQFV (Biotin-PRLKRMQQFEDLEDEIPQFV) [RhoGAP 1 (PTPL1-associated)] — recorded Classification = 2 (A450 nm 1-2)
